The origin of these recorded values is ChEMBL document CHEMBL5726146.

For each entry below, report its IC50 value.
experimental_system: Endothelial lipase (Homo sapiens, UniProt Q9Y5X9)
Sequence (Q9Y5X9 whole entry): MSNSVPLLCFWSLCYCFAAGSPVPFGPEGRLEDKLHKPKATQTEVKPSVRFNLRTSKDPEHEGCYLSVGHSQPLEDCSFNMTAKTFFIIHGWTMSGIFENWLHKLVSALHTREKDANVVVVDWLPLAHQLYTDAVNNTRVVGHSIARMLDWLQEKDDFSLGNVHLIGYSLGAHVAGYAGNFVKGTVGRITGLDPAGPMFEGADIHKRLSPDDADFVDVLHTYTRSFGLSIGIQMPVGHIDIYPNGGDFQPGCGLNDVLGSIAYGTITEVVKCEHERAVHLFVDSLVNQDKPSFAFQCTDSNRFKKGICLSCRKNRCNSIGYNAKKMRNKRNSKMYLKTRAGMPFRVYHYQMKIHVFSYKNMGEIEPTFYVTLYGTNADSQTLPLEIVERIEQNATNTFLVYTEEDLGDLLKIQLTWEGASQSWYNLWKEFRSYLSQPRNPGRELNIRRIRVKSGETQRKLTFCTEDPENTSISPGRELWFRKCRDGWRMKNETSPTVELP
protocol_notes: Biological Activity: Endothelial lipase (EL) and hepatic lipase (HL) activities were measured using a fluorescent substrate, A10070, (Invitrogen, CA) doped into an artificial vesicle containing DMPG (Avanti Polar Lipids) as the excipient. Vesicles were prepared by combining 571 μL of 29 mM DMPG in a 1:1 mixture of MeOH and CHCl3 with 2000 μL of 1 mM A10070 in a 1:1 mixture of MeOH and CHCl3. The mixture was dried under nitrogen in multiple vials then resuspended in 20 mL total volume of 50 mM HEPES pH 8.0 buffer containing 50 mM NaCl and 0.2 mM EDTA. The sample was allowed to sit at room temperature for 15 min and then was sonicated 3×4 mins on ice with a Branson Sonicator using duty cycle 1. This preparation provides vesicles with a mole fraction of 0.11 for the FRET substrate.The enzymatic assay was measured using 384-well white Optiplates. Each well contained 20 μL of assay buffer (50 mM HEPES pH 8.0, 50 mM NaCl and 1 mM CaCl2) and 0.25 μL of a DMSO solution containing a compound of interest. EL or HL (10 μL) was added and allowed to incubate with the compound for 30 min at 37° C. The source of EL was conditioned media obtained from HT-1080 cells that were transformed using RAGE technology (Athersys) to overexpress endogenous EL, and HL was partially purified from conditioned media obtained from COS cells overexpressing HL. The reaction was started by the addition of 10 μL of a 1:10 dilution of vesicles. The final total reaction volume was […]. The reaction rates were measured on a Gemini plate reader with an excitation wavelength of 490 nm and an emission wavelength of 530 nm. Readings were taken over a period of 60 minutes, and the slope between 300 and 900 secs of the readout was used to calculate the rate of the reaction.
Give bare numbers, in nM.

Recorded IC50, per entry:
>>> recorded_number("CC(=O)Nc1ccc(-c2cc3sc(C(C(=O)NCC(=O)NC4CC4)S(C)(=O)=O)nc3cc2F)cc1 (centres undefined)")
9
>>> recorded_number("COCCS(=O)(=O)C(C(=O)NCC(=O)NC1CC1)c1nc2c(F)cc(-c3cccnc3F)cc2s1 (centres undefined)")
106
>>> recorded_number("O=C(CNC(=O)C(c1nc2cc(F)c(-c3ccc(F)nc3)cc2s1)S(=O)(=O)c1ccccc1F)NC1CC1 (centres undefined)")
58

--- query ---
Q. Field request: IC50 | item: CS(=O)(=O)C(C(=O)NCC(=O)NC1CC1)c1nc2cc(F)c(-c3ccc(=O)n(-c4ccccc4)c3)cc2s1 (centres undefined)
A. 6

----------
experimental_system: Endothelial lipase (Homo sapiens)
protocol_notes: Biological Activity: Endothelial lipase (EL) and hepatic lipase (HL) activities were measured using a fluorescent substrate, A10070, (Invitrogen, CA) doped into an artificial vesicle containing DMPG (Avanti Polar Lipids) as the excipient. Vesicles were prepared by combining 571 μL of 29 mM DMPG in a 1:1 mixture of MeOH and CHCl3 with 2000 μL of 1 mM A10070 in a 1:1 mixture of MeOH and CHCl3. The mixture was dried under nitrogen in multiple vials then resuspended in 20 mL total volume of 50 mM HEPES pH 8.0 buffer containing 50 mM NaCl and 0.2 mM EDTA. The sample was allowed to sit at room temperature for 15 min and then was sonicated 3×4 mins on ice with a Branson Sonicator using duty cycle 1. This preparation provides vesicles with a mole fraction of 0.11 for the FRET substrate.The enzymatic assay was measured using 384-well white Optiplates. Each well contained 20 μL of assay buffer (50 mM HEPES pH 8.0, 50 mM NaCl and 1 mM CaCl2) and 0.25 μL of a DMSO solution containing a compound of interest. EL or HL (10 μL) was added and allowed to incubate with the compound for 30 min at 37° C. The source of EL was conditioned media obtained from HT-1080 cells that were transformed using RAGE technology (Athersys) to overexpress endogenous EL, and HL was partially purified from conditioned media obtained from COS cells overexpressing HL. The reaction was started by the addition of 10 μL of a 1:10 dilution of vesicles. The final total reaction volume was […]. The reaction rates were measured on a Gemini plate reader with an excitation wavelength of 490 nm and an emission wavelength of 530 nm. Readings were taken over a period of 60 minutes, and the slope between 300 and 900 secs of the readout was used to calculate the rate of the reaction.
metric_name: pIC50
Give bare numbers, as −log10 of the molar value.

>>> recorded_number("CS(=O)(=O)C(C(=O)NCC(=O)NC1CC1)c1nc2cc(F)c(-c3ccc(C(=O)NCCc4ccccc4)cc3)cc2s1 (stereo not drawn)")
9.00
>>> recorded_number("COCCS(=O)(=O)C(C(=O)NCC(=O)NC1CC1)c1nc2cc(-c3ccc(OC(C)C)nc3)ccc2s1 (stereo not drawn)")
7.96
>>> recorded_number("O=C(CNC(=O)C(c1nc2ccc(-c3cccnc3F)cc2s1)S(=O)(=O)c1ccccc1)NC1CC1 (stereo not drawn)")
6.99
>>> recorded_number("COCCS(=O)(=O)C(C(=O)NCC(=O)NC1CC1)c1nc2ccc(-c3ccc(N4CCCC4)nc3)cc2s1 (stereo not drawn)")
6.93

I need pIC50 for every entry listed below, if you could help.
1. COCCS(=O)(=O)C(C(=O)NCC(=O)NC1CC1)c1nc2ccc(-c3cccnc3C(F)(F)F)cc2s1 (stereo not drawn)
2. CS(=O)(=O)C(C(=O)NCC(=O)NC1CC1)c1nc2cc(-c3ccccc3)c(F)cc2s1 (stereo not drawn)
3. COCCS(=O)(=O)C(C(=O)NCC(=O)NC1CC1)c1nc2cc(-c3ccc(C)nc3)ccc2s1 (stereo not drawn)
4. Cn1nccc1-c1cc2sc(C(C(=O)NCC(=O)NC3CC3)S(C)(=O)=O)nc2cc1F (stereo not drawn)
5. CS(=O)(=O)C(C(=O)NCC(=O)NC1CC1)c1nc2cc(F)c(-c3ccc4c(c3)CCCN4C(=O)Cc3c(F)cccc3F)cc2s1 (stereo not drawn)
6. C[C@H]1CN(C(=O)c2ccc(-c3ccc4nc(C(C(=O)NCC(=O)NC5CC5)S(C)(=O)=O)sc4c3)cc2)CCO1 (stereo partly drawn)
7. COCCS(=O)(=O)C(C(=O)NCC(=O)NC1CC1)c1nc2cc(F)c(-c3ccc4c(c3)CCN4)cc2s1 (stereo not drawn)

A.
1. 7.43
2. 8.40
3. 7.47
4. 7.59
5. 8.15
6. 7.51
7. 8.52

I need pIC50 for every entry listed below, if you could help.
1. O=C(CNC(=O)C(c1nc2ccc(-c3ccc(F)nc3)cc2s1)S(=O)(=O)C1CCOCC1)NC1CC1 (stereo not drawn)
2. COCCS(=O)(=O)C(C(=O)NCC(=O)NC1CC1)c1nc2ccc(-c3ccc(C(N)=O)c(Cl)c3)cc2s1 (stereo not drawn)

A.
1: 7.33; 2: 7.48
